Test system: Trichoderma virens ATCC 9645
Experiment: growth yield (OD600) with compound + IPBC relative to untreated control; higher = less growth inhibition
Details: compound concentration: 100 uM; IPBC concentration: 200 ng/ml; 72 h
Among all 1,300 compounds or so, about 130 (10%) showed an effect of 50% or more. What follows is part of a selection rich in strong results, with near analogues and random picks from the rest.
Class True: growth yield at least 80%. Class False: growth yield below 80%.

MOLECULE	CLASSIFICATION
CCCSc1ccc2[nH]c(NC(=O)OC)nc2c1 [Albendazole] + CCCCNC(=O)OCC#CI [3-iodo-2-propynyl butylcarbamate (IPBC)]	True
O=C(O)C[C@H](O)C[C@H](O)/C=C/c1c(C2CC2)nc2ccccc2c1-c1ccc(F)cc1 [Pitavastatin calcium] + CCCCNC(=O)OCC#CI [3-iodo-2-propynyl butylcarbamate (IPBC)]	False
Cc1ccccc1C(=O)Nc1ccc(C(=O)N2CCCC(O)c3cc(Cl)ccc32)c(C)c1 (stereo not given) [Tolvaptan] + CCCCNC(=O)OCC#CI [3-iodo-2-propynyl butylcarbamate (IPBC)]	True
CCCOc1ccc2[nH]c(NC(=O)OC)nc2c1 [Oxibendazol] + CCCCNC(=O)OCC#CI [3-iodo-2-propynyl butylcarbamate (IPBC)]	True

====

System: Trichoderma virens ATCC 9645
Assay: growth yield (OD600) with compound + IPBC relative to untreated control; higher = less growth inhibition
Conditions: compound concentration: 100 uM; IPBC concentration: 200 ng/ml; 72 h
Where a name gives a salt, the structure may show the parent alone. Out of some 1,300 compounds screened, about 130 (10%) showed an effect of 50% or more. This excerpt belongs to a sample that is enriched for strong results.
Listing: growth yield of selected compounds

COMPOUND	growth yield / %
CCCCCCCN(CC)CCCC(O)c1ccc(NS(C)(=O)=O)cc1 (stereo not drawn) [Ibutilide fumarate] + CCCCNC(=O)OCC#CI [3-iodo-2-propynyl butylcarbamate (IPBC)]	88.1
CCCCOc1cc(C(=O)OCCN(CC)CC)ccc1N [Benoxinate hydrochloride] + CCCCNC(=O)OCC#CI [3-iodo-2-propynyl butylcarbamate (IPBC)]	91.2
CCCCc1oc2ccccc2c1C(=O)c1cc(I)c(OCCN(CC)CC)c(I)c1 [Amiodarone hydrochloride] + CCCCNC(=O)OCC#CI [3-iodo-2-propynyl butylcarbamate (IPBC)]	2.41

====

Tested on: Trichoderma virens ATCC 9645
Assay: growth yield (OD600) with compound + IPBC relative to untreated control; higher = less growth inhibition
Details: compound concentration: 100 uM; IPBC concentration: 200 ng/ml; 72 h
Where a name gives a salt, the structure may show the parent alone. Screen size: about 1,300 compounds; about 130 (10%) showed an effect of 50% or more. The full list was thinned out, with strong results kept by preference.
Class criterion met: growth yield at least 90%. Class criterion not met: growth yield below 90%.

COMPOUND	CLASSIFICATION
CN(C/C=C/C#CC(C)(C)C)Cc1cccc2ccccc12 [Terbinafine] + CCCCNC(=O)OCC#CI [3-iodo-2-propynyl butylcarbamate (IPBC)]	criterion not met
Clc1ccc(C(Cn2ccnc2)OCc2csc3c(Cl)cccc23)c(Cl)c1 (stereo unspecified) [Sertaconazole nitrate] + CCCCNC(=O)OCC#CI [3-iodo-2-propynyl butylcarbamate (IPBC)]	criterion not met
CC(C)(C)CC(C)(C)c1ccc(OCCOCC[N+](C)(C)Cc2ccccc2)cc1 [Benzethonium chloride] + CCCCNC(=O)OCC#CI [3-iodo-2-propynyl butylcarbamate (IPBC)]	criterion not met
C[N+](C)(CCOc1ccccc1)Cc1ccccc1.O=C([O-])c1cc2ccccc2cc1O [Bephenium hydroxynaphthoate] + CCCCNC(=O)OCC#CI [3-iodo-2-propynyl butylcarbamate (IPBC)]	criterion not met
CN(C)CCN(Cc1ccccc1)c1ccccn1 [Tripelennamine hydrochloride] + CCCCNC(=O)OCC#CI [3-iodo-2-propynyl butylcarbamate (IPBC)]	criterion met
C[C@]12COC(=O)C[C@@H]1CC[C@@H]1[C@@H]2CC[C@@]2(C)[C@H]1CC[C@]2(C)O [Oxandrolone] + CCCCNC(=O)OCC#CI [3-iodo-2-propynyl butylcarbamate (IPBC)]	criterion met
C=CC1=C(C(=O)O)N2C(=O)[C@@H](NC(=O)/C(=N\OCC(=O)O)c3csc(N)n3)[C@H]2SC1 [Cefixime] + CCCCNC(=O)OCC#CI [3-iodo-2-propynyl butylcarbamate (IPBC)]	criterion met
CNCC(O)c1ccc(O)cc1 (racemic) [(+,-)-Synephrine] + CCCCNC(=O)OCC#CI [3-iodo-2-propynyl butylcarbamate (IPBC)]	criterion met
CCNC(=O)CCC/C=C\C[C@@H]1[C@@H](/C=C/[C@@H](O)CCc2ccccc2)[C@H](O)C[C@@H]1O [Bimatoprost] + CCCCNC(=O)OCC#CI [3-iodo-2-propynyl butylcarbamate (IPBC)]	criterion met
O=C(O)c1cc(-c2ccc(F)cc2F)ccc1O [Diflunisal] + CCCCNC(=O)OCC#CI [3-iodo-2-propynyl butylcarbamate (IPBC)]	criterion not met
O=C(C1CCCCC1)N1CC(=O)N2CCc3ccccc3C2C1 (stereo unspecified) [Praziquantel] + CCCCNC(=O)OCC#CI [3-iodo-2-propynyl butylcarbamate (IPBC)]	criterion not met
CCCCc1cc2ccccc2c(OCCN(C)C)n1 [Dimethisoquin hydrochloride] + CCCCNC(=O)OCC#CI [3-iodo-2-propynyl butylcarbamate (IPBC)]	criterion not met
COC1=CC(=O)C[C@@H](C)[C@]12Oc1c(Cl)c(OC)cc(OC)c1C2=O [Griseofulvin] + CCCCNC(=O)OCC#CI [3-iodo-2-propynyl butylcarbamate (IPBC)]	criterion not met
COc1cc(C)nc(-n2nc(C)cc2OC)n1 [Epirizole] + CCCCNC(=O)OCC#CI [3-iodo-2-propynyl butylcarbamate (IPBC)]	criterion met
COc1ccc2c(c1)c(CC(=O)OCC(=O)O)c(C)n2C(=O)c1ccc(Cl)cc1 [Acemetacin] + CCCCNC(=O)OCC#CI [3-iodo-2-propynyl butylcarbamate (IPBC)]	criterion not met
CN(C/C=C/c1ccccc1)Cc1cccc2ccccc12 [Naftifine hydrochloride] + CCCCNC(=O)OCC#CI [3-iodo-2-propynyl butylcarbamate (IPBC)]	criterion not met
